Molecular target: horse liver ADH1E S48T/F93A (Equus caballus, UniProt P00327, F94A/S49T)
Sequence (P00327 whole entry S49T/F94A): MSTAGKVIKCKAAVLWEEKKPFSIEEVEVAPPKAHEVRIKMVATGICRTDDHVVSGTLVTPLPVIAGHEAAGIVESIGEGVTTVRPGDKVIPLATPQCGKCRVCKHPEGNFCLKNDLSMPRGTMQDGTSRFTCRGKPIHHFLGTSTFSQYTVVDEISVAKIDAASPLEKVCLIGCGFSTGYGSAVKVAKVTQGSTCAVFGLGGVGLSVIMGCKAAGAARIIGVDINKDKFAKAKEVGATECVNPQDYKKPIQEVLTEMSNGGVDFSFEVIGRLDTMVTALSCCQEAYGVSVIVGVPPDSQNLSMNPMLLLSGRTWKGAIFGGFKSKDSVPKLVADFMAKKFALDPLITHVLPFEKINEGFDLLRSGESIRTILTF
Test: Transient
Assay type: biochemical
Details: pH 8.0, 25 °C; 2 mM NAD+ (oxidation) or stoichiometric NADH (reduction)
reportedProperty: K m (transient reaction)
Answer as a quantity: numeral, then unit.

Examples with their reported K m (transient reaction) follow.
INSERT INTO measurements (molecule, tgt, reportedproperty, measuredvalue) VALUES
  ('CC[C@@H](C)O [(R)-2-Butanol, (R)-2-butanol]', 'horse liver ADH1E S48T/F93A (Equus caballus, UniProt P00327, F94A/S49T)', 'K m (transient reaction)', '26 mM'),
  ('CC=O', 'horse liver ADH1E S48T/F93A (Equus caballus, UniProt P00327, F94A/S49T)', 'K m (transient reaction)', '150 mM'),
  ('CCC(C)=O', 'horse liver ADH1E S48T/F93A (Equus caballus, UniProt P00327, F94A/S49T)', 'K m (transient reaction)', '29 mM'),
  ('CCO', 'horse liver ADH1E S48T/F93A (Equus caballus, UniProt P00327, F94A/S49T)', 'K m (transient reaction)', '38 mM'),
  ('OCc1ccccc1', 'horse liver ADH1E S48T/F93A (Equus caballus, UniProt P00327, F94A/S49T)', 'K m (transient reaction)', '15 mM'),
  ('O=Cc1ccccc1', 'horse liver ADH1E S48T/F93A (Equus caballus, UniProt P00327, F94A/S49T)', 'K m (transient reaction)', '0.26 mM');

Now let's try a different one.
**Q:** Look up and report measured K m (transient reaction) for this entry: CC[C@H](C)O [(S)-2-Butanol, (S)-2-butanol]
**A:** 4.9 mM
